Experiment: Pharmacokinetic analysis of serum levels after a single intraperitoneal dose
Assay type: in vivo
Settings: ip, mouse, single intraperitoneal dose 30 mg/Kg, read-out: average maximum concentration (Cmax) in serum
PARAMETER: Cmax

Data request: Can you look up the measured Cmax of CCCCCCCCNC(=O)C(C#N)=Cc1cn(CCCN(C)C)c2ccccc12 for me?
Data returned: > 4 µM

###

Test: Clonogenic assay of human CD34-positive HSPCs from healthy donors, 10 days (LC50)
Assay type: cell-based
Conditions: human, sample 06-02-2018 CD34
PARAMETER: CC50 at 10 days (µM)
Give bare numbers, in µM.

Data request: May I ask what CC50 at 10 days has been recorded for CCCCCCCCNC(=O)C(C#N)=Cc1cn(CCCN(C)C)c2ccccc12 ?
Data returned: 8.8

###

Assay: Clonogenic assay of human CD34-positive HSPCs from healthy donors, 10 days (LC50)
Type: cell-based
Details: human, sample 10-03-2018 CD34
PARAMETER: CC50 at 10 days
Quick note: unit goes after the number.

Data request: State the recorded CC50 at 10 days for this entry: CCCCCCCCNC(=O)C(C#N)=Cc1cn(CCCN(C)C)c2ccccc12
Data returned: 9.85 µM

###

Experiment: in vitro
Conditions: mouse, Relative % viable cells
PARAMETER: viability at 48 h, 0.2 mM (%)
Numbers only, in %.

Data request: Can you look up the measured viability at 48 h, 0.2 mM of N#CC[C@H](C1CCCC1)n1cc(-c2ncnc3[nH]ccc23)cn1 for me?
Data returned: 39.6
